assayedTarget: CYP3A4 (Homo sapiens, UniProt P08684)
Sequence (P08684 whole entry): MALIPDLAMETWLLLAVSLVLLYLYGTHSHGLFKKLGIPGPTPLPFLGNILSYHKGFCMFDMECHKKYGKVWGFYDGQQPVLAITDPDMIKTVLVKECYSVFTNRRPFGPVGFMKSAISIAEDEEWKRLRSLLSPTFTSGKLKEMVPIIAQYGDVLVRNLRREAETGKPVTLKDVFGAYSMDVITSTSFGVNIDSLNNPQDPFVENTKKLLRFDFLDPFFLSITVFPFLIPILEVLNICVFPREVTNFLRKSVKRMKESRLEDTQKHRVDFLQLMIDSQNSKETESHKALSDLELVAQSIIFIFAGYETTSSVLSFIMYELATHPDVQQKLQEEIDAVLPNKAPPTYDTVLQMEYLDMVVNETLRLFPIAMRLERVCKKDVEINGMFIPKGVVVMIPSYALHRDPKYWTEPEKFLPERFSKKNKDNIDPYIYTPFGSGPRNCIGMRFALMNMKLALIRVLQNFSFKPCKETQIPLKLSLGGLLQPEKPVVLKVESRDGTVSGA
methodDescription: Recombinant CYP450 inhibition, fluorometric, CYP3A4
Type: in vitro ADME
Design: from tissue; host or cells: pooled human liver microsomes
Each record here notes measured pIC50.
pIC50 is defined as minus the log10 of a concentration measured in mol/L.

Some solved entries appear below for comparison.
compound	pIC50
COP(=O)(c1cc(C)cc(/C=C/C#N)c1)c1c(C(N)=O)[nH]c2ccc(Cl)c(F)c12 (racemic)	5.79
COP(=O)(c1cc(C)cc(/C=C/C#N)c1)c1c(C(N)=O)[nH]c2ccc(Cl)cc12 (racemic)	5.64

Look up pIC50 for this compound: CO[P@@](=O)(c1cc(C)cc(/C=C/C#N)c1)c1c(C(N)=O)[nH]c2ccc(Cl)c(F)c12 5.49

Look up pIC50 for this compound: CO[P@](=O)(c1cc(C)cc(/C=C/C#N)c1)c1c(C(N)=O)[nH]c2ccc(Cl)c(F)c12 5.84
